- Tested on: Eimeria mitis
- Test Description: Anticoccidial activity against Eimeria mitis infected in poultry bird assessed as reduction of […] burden at 50 ppm, po after 7 days
- Format: functional
- Set-up: scale not given: the % may be the effect or the level left
Parameter: Activity (%)
One number for each entry, in %.

Example entries and their recorded answers appear below.
| Smiles Repr | System Name | Activity [%] |
| --- | --- | --- |
| CN1CCN(Cc2cn3c(-c4ccncn4)c(-c4ccc(F)cc4)nc3s2)CC1 | Eimeria mitis | 100 |
| CN1CCN(Cc2cn3c(-c4ccnc(N)n4)c(-c4ccc(F)cc4)nc3s2)CC1 | Eimeria mitis | 100 |
| CN(C)Cc1cn2c(-c3ccnc(N)n3)c(-c3ccc(F)cc3)nc2s1 | Eimeria mitis | 50 |
| CN1CCN(Cc2cn3c(-c4ccncc4)c(-c4ccc(F)cc4)nc3s2)CC1 | Eimeria mitis | 80 |

Please turn your attention to the following entry.
Reported Activity for `CN(C)CCc1cn2c(-c3ccncc3)c(-c3ccc(F)cc3)nc2s1` : what is it?
99
